FYI, the data here is from PubChem BioAssay AID248.

// T/C lookup, one value per entry
test system: L1210 leukemia ip in BDF1 mice, survival T/C; assay: NCI In Vivo Anticancer Drug Screen. Data for tumor model L1210 Leukemia (intraperitoneal) in B6D2F1 (BDF1) mice; settings: endpoint: mean survival time; dose: 100.0 mg/kg/injection; schedule: Q04DX003 (ip); vehicle: saline; higher = longer survival
Toxic doses and inconclusive results are not listed.
measured-attribute: T/C

{"compound": "CC1(C)CCSC(/C=C/c2ccccc2)=N1", "target-entity": "L1210 leukemia ip in BDF1 mice, survival T/C", "recorded-value": "100 % of control"}
{"compound": "CCOP(=O)(OCC)OC(=C(F)F)P(=O)(OCC)OCC", "target-entity": "L1210 leukemia ip in BDF1 mice, survival T/C", "recorded-value": "98 % of control"}
{"compound": "CCOC(=O)NCc1ccc(Cl)c(C(=O)O)c1", "target-entity": "L1210 leukemia ip in BDF1 mice, survival T/C", "recorded-value": "88 % of control"}
{"compound": "O=Nc1ccc(NO)c2ccccc12", "target-entity": "L1210 leukemia ip in BDF1 mice, survival T/C", "recorded-value": "99 % of control"}
{"compound": "CC(=O)NN=C(C)C", "target-entity": "L1210 leukemia ip in BDF1 mice, survival T/C", "recorded-value": "99 % of control"}
{"compound": "COC(=O)N1C=Cc2ccccc2C1C#N (configuration not stated)", "target-entity": "L1210 leukemia ip in BDF1 mice, survival T/C", "recorded-value": "107 % of control"}
{"compound": "Nc1nc(Cl)nc2c1ncn2C1OC(CO)C(O)C1O (configuration not stated)", "target-entity": "L1210 leukemia ip in BDF1 mice, survival T/C", "recorded-value": "113 % of control"}

---

tested on: L1210 leukemia ip in BDF1 mice, survival T/C; assay: NCI In Vivo Anticancer Drug Screen. Data for tumor model L1210 Leukemia (intraperitoneal) in B6D2F1 (BDF1) mice; conditions: endpoint: mean survival time; dose: 100.0 mg/kg/injection; schedule: Q01DX001 (ip); vehicle: saline; higher = longer survival
Inconclusive results and toxic doses are left out.

{"compound": "O=C(/C=C(\\S)c1ccccc1)c1ccccc1", "T/C": "104 % of control"}
{"compound": "c1ccc(N(c2ccccc2)N(c2ccccc2)c2ccccc2)cc1", "T/C": "88 % of control"}
{"compound": "CC1=NN(c2ccccc2)C(=O)C1N=Nc1ccc([As](=O)(O)O)c(O)c1 (configuration not stated)", "T/C": "96 % of control"}
{"compound": "CC(=O)OC1C=COC(C)C1OC(C)=O (configuration not stated)", "T/C": "97 % of control"}
{"compound": "CC(C)COC(=O)C(C)OC(=O)OCCOCCOC(=O)OC(C)C(=O)OCC(C)C (configuration not stated)", "T/C": "100 % of control"}
{"compound": "Clc1ccc2[nH]c(-c3ccccc3)c(-c3ccccc3)c2c1", "T/C": "92 % of control"}
{"compound": "CCCC[CH2][Sn](=[O])[CH2]CCCC", "T/C": "109 % of control"}
{"compound": "CC(O)COC(C)C (configuration not stated)", "T/C": "98 % of control"}
{"compound": "O=C(CCCC(=O)NNC(=S)Nc1ccccc1Cl)NNC(=S)Nc1ccccc1Cl", "T/C": "96 % of control"}
{"compound": "O=c1cc[nH]c2c([N+](=O)[O-])cccc12", "T/C": "99 % of control"}
{"compound": "CN(C)c1ccc(/C=C/c2ccnc3ccccc23)cc1", "T/C": "97 % of control"}
{"compound": "Cc1cc(C)nc(/N=C(/N)Nc2ccc(S(=O)(=O)NC(=O)Nc3ccccc3)cc2)n1", "T/C": "92 % of control"}
